# protein stability index listing for each entry below
B1: UBE2R2 (parent)
chain: DPQSGELPSERWNPTQNVRTILLS

- Variants of: B1
- assayName: protein stability index of a GFP-peptide fusion (GPS, HEK-293T) (PSI 1-6); higher = more stable;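 also: lentivirally expressed fusions sorted by FACS into six bins by GFP to DsRed ratio, PSI derived from sequencing read proportions per bin multiplied by bin number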
- conditionDetails: c terminus: a fixed tail appended
propertyMeasured: protein stability index

1) DPQSGELPSERWNPTQNVRTILMS = 3.7
2) DPQSGELPSERWNDTQNVRTILLS = 4.12
3) DPQSGELPSERWNPMQNVRTILLS = 2.86
4) DPQSGELPSERWNPTCNVRTILLS = 3.04
5) QPQSGELPSERWNPTQNVRTILLS = 3.88
6) DQQSGELPSERWNPTQNVRTILLS = 3.22
7) HPQSGELPSERWNPTQNVRTILLS = 3.34
8) DPQSGELQSERWNPTQNVRTILLS = 3.57
9) DPQSGEMPSERWNPTQNVRTILLS = 3.71
10) DPQSGELPSERWNPTQNVRTILLG = 3.4
11) DPQSGELPSERWNPTNNVRTILLS = 3.48
12) DPGSGELPSERWNPTQNVRTILLS = 3.79
13) DPQSGELPSARWNPTQNVRTILLS = 2.98
14) DPQSGELPSEVWNPTQNVRTILLS = 3.62
15) DPQSGELPSERWNPTQNVRTILLE = 4.23
16) DPQSGELPSERWNPEQNVRTILLS = 3.6
17) DPQSGVLPSERWNPTQNVRTILLS = 3.17
18) DPQSGELPSERWNPTQNVRTVLLS = 3.9
19) DPQSGWLPSERWNPTQNVRTILLS = 2.89
20) DPQSGELPSERWNPTQNVRTIWLS = 2.44
21) DPQSGELPSERWNPTQNTRTILLS = 4.04
22) DPQSGELPSERWNPTQNVRTIILS = 3.05
